Measured IC50, listed per entry.
targetDesc: human MASP1 (Homo sapiens (Human), UniProt P48740)
Sequence (P48740 other isoform, or with tags, fused parts or gaps): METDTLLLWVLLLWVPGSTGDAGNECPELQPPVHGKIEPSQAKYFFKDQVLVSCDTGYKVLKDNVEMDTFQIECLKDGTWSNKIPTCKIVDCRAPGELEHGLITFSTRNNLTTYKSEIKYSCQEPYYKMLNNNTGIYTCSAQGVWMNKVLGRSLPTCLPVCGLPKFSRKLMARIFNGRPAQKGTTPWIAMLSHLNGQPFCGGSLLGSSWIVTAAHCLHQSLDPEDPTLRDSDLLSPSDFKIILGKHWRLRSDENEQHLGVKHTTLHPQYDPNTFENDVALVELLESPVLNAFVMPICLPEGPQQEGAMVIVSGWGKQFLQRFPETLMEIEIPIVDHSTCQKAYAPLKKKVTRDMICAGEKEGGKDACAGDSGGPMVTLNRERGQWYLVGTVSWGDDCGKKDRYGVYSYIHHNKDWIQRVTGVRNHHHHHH
experimentSummary: Biochemical human MASP1 assay (FRET substrate)
experimentalSetup: Average IC50; recombinant human MASP1; read-out: human MASP1 IC50
Text: A truncated cDNA sequence of human MASP1 encoding the fragment corresponding to the amino acids 297-699 with a C-terminal His Tag and N-terminal Ig-kappa secretion signal (SEQ ID No: 2) was subcloned into the mammalian expression vector pcDNA3.1 (Invitrogen). The MASP1 or MASP2 expression vectors were transfected into the HEK293 (ATCC No. CRL-1573) cell line using Lipofectamine LTX® Reagent (Thermo-Fischer), as described by the manufacturer. […]
Where a SMILES comes first, the peptide text is derived from it. Bridges are numbered along the chain shown (N, C = ends). [ ]: non-standard residue; d: D form. Oic = O=C(O)[C@@H]1C[C@@H]2CCCC[C@@H]2N1; tBuAla = CC(C)(C)C[C@H](N)C(=O)O; Pen = CC(C)(S)[C@H](N)C(=O)O; NMeC = CN[C@@H](CS)C(=O)O; Dap = NC[C@H](N)C(=O)O; Ahx = NCCCCCC(=O)O
Please give a number only; it is taken to be in nM.

Some solved entries appear below for comparison.
compound	unitSymbol	IC50
CC[C@H](C)[C@@H]1NC(=O)[C@H](C)NC(=O)CNC(=O)[C@H](C)NC(=O)[C@H](CC(=O)O)NC(=O)[C@@H]2CCCN2C(=O)[C@H]([C@@H](C)CC)NC(=O)[C@@H]2CSSC[C@H](NC1=O)C(=O)N[C@@H](CO)C(=O)N[C@@H](CCCNC(=N)N)C(=O)N[C@@H](CO)C(=O)N[C@@H](CC(C)(C)C)C(=O)N1CCC[C@H]1C(=O)N1CCC[C@H]1C(=O)N[C@@H]([C@@H](C)CC)C(=O)N2C [Example 31] (cyclo(AGAICSRS[tBuAla]PPI[NMeC]IPD); disulfide 5-13)	nM	16
CC[C@H](C)[C@@H]1NC(=O)[C@H](CN)NC(=O)[C@H](CN)NC(=O)[C@H]([C@@H](C)CC)NC(=O)[C@H]2NC(=O)[C@H]([C@@H](C)CC)NC(=O)[C@@H]3CCCN3C(=O)[C@@H]3CCCN3C(=O)[C@H](CC(C)(C)C)NC(=O)[C@H](CO)NC(=O)[C@H](CCCNC(=N)N)NC(=O)[C@H](CO)NC(=O)[C@H](CSSC2(C)C)NC1=O [Example 57] (cyclo(CSRS[tBuAla]PPI[Pen]I[Dap][Dap]I); disulfide 1-9)	nM	46
CC[C@H](C)[C@@H]1NC(=O)[C@H](C)NC(=O)CNC(=O)[C@H](C)NC(=O)[C@H](CC(=O)O)NC(=O)[C@@H]2CCCN2C(=O)[C@H]([C@@H](C)CC)NC(=O)[C@H]2NC(=O)[C@H]([C@@H](C)CC)NC(=O)[C@@H]3CCCN3C(=O)[C@@H]3CCCN3C(=O)[C@H](CC(C)(C)C)NC(=O)[C@H](CO)NC(=O)[C@H](CCCNC(=N)N)NC(=O)[C@H](CO)NC(=O)[C@H](CSSC2(C)C)NC1=O [Example 26] (cyclo(AGAICSRS[tBuAla]PPI[Pen]IPD); disulfide 5-13)	nM	12
CC[C@H](C)[C@@H]1NC(=O)CNC(=O)[C@H](CC(=O)O)NC(=O)[C@@H]2CCCN2C(=O)[C@H]([C@@H](C)CC)NC(=O)[C@@H]2CSSC[C@H](NC1=O)C(=O)N[C@@H](CO)C(=O)N[C@@H](CCCNC(=N)N)C(=O)N[C@@H](CO)C(=O)N[C@@H](CC(C)C)C(=O)N1CCC[C@H]1C(=O)N1CCC[C@H]1C(=O)N[C@@H]([C@@H](C)CC)C(=O)N2 [Ref. No 7, reference compound] (cyclo(CIPDGICSRSLPPI); disulfide 1-7)	nM	145

We next turn to a different compound, shown below.
Input: Reported IC50, compound CC[C@H](C)[C@@H]1NC(=O)[C@@H](C)NC(=O)CNC(=O)CCCCCNC(=O)CC[C@@H](C(N)=O)NC(=O)[C@@H]2CCCN2C(=O)[C@H]([C@@H](C)CC)NC(=O)[C@H]2NC(=O)[C@H]([C@@H](C)CC)NC(=O)[C@@H]3C[C@@H]4CCCC[C@@H]4N3C(=O)[C@@H]3CCCN3C(=O)[C@H](CC(C)C)NC(=O)[C@H](CO)NC(=O)[C@H](CCCNC(=N)N)NC(=O)[C@H](CO)NC(=O)[C@H](CSSC2(C)C)NC1=O [Example 84] ([Ahx]G[dA]ICSRSLP[Oic]I[Pen]IPE-NH2; disulfide 5-13; lactam N-16) : ____
Output: 15

###

targetDesc: human MASP2 (Homo sapiens (Human), UniProt O00187)
Sequence (O00187 other isoform, or with tags, fused parts or gaps): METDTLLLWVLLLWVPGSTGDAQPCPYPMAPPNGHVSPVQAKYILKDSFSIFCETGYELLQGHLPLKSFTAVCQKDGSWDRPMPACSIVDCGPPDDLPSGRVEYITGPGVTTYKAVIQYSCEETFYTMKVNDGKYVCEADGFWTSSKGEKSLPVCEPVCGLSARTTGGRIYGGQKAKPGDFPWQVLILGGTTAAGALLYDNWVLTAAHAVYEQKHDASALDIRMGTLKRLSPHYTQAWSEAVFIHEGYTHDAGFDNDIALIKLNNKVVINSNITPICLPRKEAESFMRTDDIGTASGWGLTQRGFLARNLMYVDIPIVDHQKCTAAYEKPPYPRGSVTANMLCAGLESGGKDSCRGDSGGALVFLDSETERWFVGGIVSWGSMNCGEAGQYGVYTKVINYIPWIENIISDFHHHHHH
experimentSummary: Biochemical human MASP2 assay (FRET substrate)
experimentalSetup: Average IC50; recombinant human MASP2; read-out: human MASP2 IC50
Where a SMILES comes first, the peptide text is derived from it. Bridges are numbered along the chain shown (N, C = ends). [ ]: non-standard residue; d: D form. Oic = O=C(O)[C@@H]1C[C@@H]2CCCC[C@@H]2N1; tBuAla = CC(C)(C)C[C@H](N)C(=O)O; Pen = CC(C)(S)[C@H](N)C(=O)O; PEG2 = NCCOCCOCCC(=O)O; Ahx = NCCCCCC(=O)O; Sar = CNCC(=O)O
Measured pIC50, listed per entry.
Remember the convention: pIC50 equals -log10 of concentration in molar.

Some solved entries appear below for comparison.
compound	reportedValue
CC[C@H](C)[C@@H]1NC(=O)CNC(=O)CNC(=O)[C@H](C)NC(=O)[C@H](CC(=O)O)NC(=O)[C@@H]2CCCN2C(=O)[C@H]([C@@H](C)CC)NC(=O)[C@H]2NC(=O)[C@H]([C@@H](C)CC)NC(=O)[C@@H]3CCCN3C(=O)[C@@H]3CCCN3C(=O)[C@H](CC(C)(C)C)NC(=O)[C@H](CO)NC(=O)[C@H](CCCNC(=N)N)NC(=O)[C@H](CO)NC(=O)[C@H](CSSC2(C)C)NC1=O [Example 29] (cyclo(AGGICSRS[tBuAla]PPI[Pen]IPD); disulfide 5-13)	7.17
CC[C@H](C)[C@@H]1NC(=O)CN(C)C(=O)CCCCCNC(=O)[C@H]([C@@H](C)CC)NC(=O)[C@H]2NC(=O)[C@H]([C@@H](C)CC)NC(=O)[C@@H]3CCCN3C(=O)[C@@H]3CCCN3C(=O)[C@H](CC(C)(C)C)NC(=O)[C@H](CO)NC(=O)[C@H](CCCNC(=N)N)NC(=O)[C@H](CO)NC(=O)[C@H](CSSC2(C)C)NC1=O [Example 64] (cyclo([Ahx][Sar]ICSRS[tBuAla]PPI[Pen]I); disulfide 4-12)	7.92

Input: Reported pIC50, compound CC[C@H](C)[C@@H]1NC(=O)CCCCCNC(=O)[C@@H]2CCCN2C(=O)[C@H]([C@@H](C)CC)NC(=O)[C@H]2NC(=O)[C@H]([C@@H](C)CC)NC(=O)[C@@H]3CCCN3C(=O)[C@@H]3CCCN3C(=O)[C@H](CC(C)(C)C)NC(=O)[C@H](CO)NC(=O)[C@H](CCCNC(=N)N)NC(=O)[C@H](CO)NC(=O)[C@H](CSSC2(C)C)NC1=O [Example 51] (cyclo([Ahx]ICSRS[tBuAla]PPI[Pen]IP); disulfide 3-11) : ____
Output: 7.77

Input: For CC[C@H](C)[C@@H]1NC(=O)[C@H](C)NC(=O)CNC(=O)[C@H](C)NC(=O)C[C@@H](C(N)=O)NC(=O)[C@@H]2CCCN2C(=O)[C@H]([C@@H](C)CC)NC(=O)[C@H]2NC(=O)[C@H]([C@@H](C)CC)NC(=O)[C@@H]3C[C@@H]4CCCC[C@@H]4N3C(=O)[C@@H]3CCCN3C(=O)[C@H](CC(C)C)NC(=O)[C@H](CO)NC(=O)[C@H](CCCNC(=N)N)NC(=O)[C@H](CO)NC(=O)[C@H](CSSC2(C)C)NC1=O [Example 41] (AGAICSRSLP[Oic]I[Pen]IPD-NH2; disulfide 5-13; lactam N-16) then?
Output: 6.72

Input: For CC[C@H](C)[C@@H]1NC(=O)[C@H](C)NC(=O)CCOCCOCCNC(=O)[C@H](CC(=O)O)NC(=O)[C@@H]2CCCN2C(=O)[C@H]([C@@H](C)CC)NC(=O)[C@H]2NC(=O)[C@H]([C@@H](C)CC)NC(=O)[C@@H]3CCCN3C(=O)[C@@H]3CCCN3C(=O)[C@H](CC(C)(C)C)NC(=O)[C@H](CO)NC(=O)[C@H](CCCNC(=N)N)NC(=O)[C@H](CO)NC(=O)[C@H](CSSC2(C)C)NC1=O [Example 34] (cyclo(AICSRS[tBuAla]PPI[Pen]IPD[PEG2]); disulfide 3-11) then?
Output: 7.01
